System: biotinyl-Val-oxazolone
ASSAY_PROTOCOL: self-aminoacylation, catalytic enhancement (BVO) (fold over background); higher = more active; k-Seq, kA / k0A0; sequences stand for … in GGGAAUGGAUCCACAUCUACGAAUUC…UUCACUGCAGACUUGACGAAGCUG
This sample holds only a part of the variants without activity.
Rule: self-aminoacylation of 0.9 or more gives Y; anything lower gives N.

chain="GUUCACCUAGGUCAUCGGCUG [Fam2.2 aminoacylation ribozyme variant]" assigned_label=Y
chain="AAGUUUGCUAAUAGUCGGAAG [Fam3.1 aminoacylation ribozyme variant]" assigned_label=Y
chain="CCAAACUUCAAGAAAUCGGUC [Fam1B.1 aminoacylation ribozyme variant]" assigned_label=N
chain="AUUCUCCUAGGUCAUCGGAUG [Fam2.2 aminoacylation ribozyme variant]" assigned_label=Y
chain="CUCCUUCAAACUAUCGGUCUG [Fam1A.1 aminoacylation ribozyme variant]" assigned_label=Y
chain="CCACACUUUAAGGAAUCGGUC [Fam1B.1 aminoacylation ribozyme variant]" assigned_label=N
chain="AUUCACGUAGGUCAUAGGGUG [Fam2.2 aminoacylation ribozyme variant]" assigned_label=Y
